# target-of-assay: T1, RSV N(13-391), N-terminally truncated nucleocapsid protein (human respiratory syncytial virus, …, UniProt P03418 13-391)
# T1 construct: source: E. coli BL21(DE3)pLysS, purified (Ni2+ chelating, Q-Sepharose, Superdex 200)
# T1 sequence: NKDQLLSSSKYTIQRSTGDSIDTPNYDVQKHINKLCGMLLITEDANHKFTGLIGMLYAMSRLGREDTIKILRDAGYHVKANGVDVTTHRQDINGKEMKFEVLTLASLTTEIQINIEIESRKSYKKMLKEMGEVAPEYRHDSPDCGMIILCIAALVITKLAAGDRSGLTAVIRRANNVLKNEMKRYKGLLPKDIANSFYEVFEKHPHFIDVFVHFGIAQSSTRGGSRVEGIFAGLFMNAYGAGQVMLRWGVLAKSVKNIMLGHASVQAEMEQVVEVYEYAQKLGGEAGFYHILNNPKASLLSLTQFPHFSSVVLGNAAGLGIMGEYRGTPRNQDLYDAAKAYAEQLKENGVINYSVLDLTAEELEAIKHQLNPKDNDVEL
# method-notes: fluorescence polarisation
# assay-setup: both partners purified
Square brackets hold non-standard residues; d marks the D form. Ends that are not written are not given here. pS = N[C@@H](COP(=O)(O)O)C(=O)O
measured-metric: pIC50
// field semantics: pIC50 = negative decimal log of concentration (mol/L)

[ask] Would you kindly share the measured pIC50 for D[pS]DNDL[pS]LEDA (source: synthetic peptide (Biopeptide Co.)) [D(pS)DNDL(pS)LEDA (doubly phosphorylated P C-terminal peptide, C-terminal Phe changed to Ala)] ?
[reply] 4.16

meta.source: paper PMC4239318
